target: hERG K+ channel (Homo sapiens, UniProt Q12809); test: hERG liability assay, IonWorks patch clamp electrophysiology; type: cell-based; conditions: human; eight-point curves, maximum test concentration 100 μM
Sequence (Q12809 whole entry): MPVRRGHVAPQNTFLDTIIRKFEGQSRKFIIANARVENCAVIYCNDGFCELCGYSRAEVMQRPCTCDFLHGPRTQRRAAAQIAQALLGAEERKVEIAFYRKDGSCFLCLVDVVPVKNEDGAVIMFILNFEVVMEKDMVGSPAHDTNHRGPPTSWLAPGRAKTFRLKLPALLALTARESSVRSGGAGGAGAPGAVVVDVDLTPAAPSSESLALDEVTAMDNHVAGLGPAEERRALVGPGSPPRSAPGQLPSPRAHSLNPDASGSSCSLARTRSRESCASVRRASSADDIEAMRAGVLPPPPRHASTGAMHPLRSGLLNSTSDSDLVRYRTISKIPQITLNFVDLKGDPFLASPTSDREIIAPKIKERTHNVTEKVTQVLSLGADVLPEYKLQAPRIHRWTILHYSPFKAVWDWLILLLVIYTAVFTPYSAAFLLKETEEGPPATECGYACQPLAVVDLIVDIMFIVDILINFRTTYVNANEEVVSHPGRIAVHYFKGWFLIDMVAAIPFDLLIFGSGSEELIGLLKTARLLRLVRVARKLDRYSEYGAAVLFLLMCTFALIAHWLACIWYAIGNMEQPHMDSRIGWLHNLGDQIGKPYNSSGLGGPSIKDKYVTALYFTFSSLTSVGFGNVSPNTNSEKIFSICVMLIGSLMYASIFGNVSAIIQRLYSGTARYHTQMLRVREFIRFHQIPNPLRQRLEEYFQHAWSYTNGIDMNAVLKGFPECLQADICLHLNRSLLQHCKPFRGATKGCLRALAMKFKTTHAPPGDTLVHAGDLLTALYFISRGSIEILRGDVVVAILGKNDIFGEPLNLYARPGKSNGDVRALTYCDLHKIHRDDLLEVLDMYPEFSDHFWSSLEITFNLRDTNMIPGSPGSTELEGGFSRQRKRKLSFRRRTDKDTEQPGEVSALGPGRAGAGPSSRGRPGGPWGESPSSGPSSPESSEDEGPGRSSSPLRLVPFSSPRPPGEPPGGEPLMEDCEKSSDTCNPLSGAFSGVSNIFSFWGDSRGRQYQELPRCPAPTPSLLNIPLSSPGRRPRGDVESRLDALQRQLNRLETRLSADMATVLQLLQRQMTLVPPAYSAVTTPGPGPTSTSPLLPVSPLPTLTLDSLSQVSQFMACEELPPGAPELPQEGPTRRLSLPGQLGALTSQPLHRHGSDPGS
pIC50: −log10 of the molar value.
measured.endpoint: pIC50

**Query** Quick one: pIC50 for "C/C1=C\CC[C@@]2(C)O[C@@H]2[C@H]2OC(=O)[C@@H](CN3CCC(c4cc(O)nc(C)n4)CC3)[C@@H]2CC1" ?
**Result** < 4.00

====

# key: entry, value: microsomal CLint
assay: Microsomal stability assay (mouse); settings: mouse, liver microsomes

The cases that follow already have their microsomal CLint on record.
1. CC1=CCCC2(C)OC2C2OC(=O)C(CN3CCCC3)C2CC1 (stereo not drawn) [Compound 5a] ... 19 µL/min/mg
2. CCn1cc(CN(C[C@@H]2C(=O)O[C@H]3[C@H]2CC/C(C)=C/CC[C@@]2(C)O[C@H]32)C(C)C)cn1 [Compound 2e] ... > 100 µL/min/mg

**Query** Report microsomal CLint for C/C1=C\CC[C@@]2(C)O[C@@H]2[C@H]2OC(=O)[C@@H](CN3CCC(Oc4cccnc4)CC3)[C@@H]2CC1 [Compound 5d] please.
**Result** > 100 µL/min/mg

====

Listed compounds paired with reported EC50
test system: MEC1 CLL cell line; assay: cells; parameters: alamarBlue (resazurin reduction) viability assay in MEC1 CLL cells; details: Homo sapiens, MEC1, 24 h; read-out: alamarBlue EC50 (uM) average

Consider the reported EC50 for these compounds:
1) CC1=CCCC2(C)OC2C2OC(=O)C(CN3CCC(N4CCc5ccccc5C4)CC3)C2CC1 (stereo not shown) ... 16.3 µM
2) CC1=CCCC2(C)OC2C2OC(=O)C(CSCCO)C2CC1 (stereo not shown) ... > 30 µM
3) CC1=CCCC2(C)OC2C2OC(=O)C(CN(C)Cc3n[nH]c4c3CCCCC4)C2CC1 (stereo not shown) ... 19.3 µM
4) CC1=CCCC2(C)OC2C2OC(=O)C(CN3CCC4(CC3)OCCO4)C2CC1 (stereo not shown) ... 15.2 µM
5) CCCCN1CCN(CC2C(=O)OC3C2CCC(C)=CCCC2(C)OC32)CC1 (stereo not shown) ... > 30 µM
6) CC1=CCCC2(C)OC2C2OC(=O)C(CN3CCC(N4CCCCC4)CC3)C2CC1 (stereo not shown) ... > 30 µM

**Query** Requested field: EC50. Item: CC1=CCCC2(C)OC2C2OC(=O)C(CN3CCN(C(C)(C)C)CC3)C2CC1 (stereo not shown)
**Result** > 30 µM

**Query** Fill in: EC50 of CC1=CCCC2(C)OC2C2OC(=O)C(CN3CCN(CC4CCCCC4)CC3)C2CC1 (stereo not shown) is ___
**Result** > 30 µM

====

target: hERG K+ channel (Homo sapiens); experiment: hERG liability assay, IonWorks patch clamp electrophysiology; type: cell-based; conditions: eight-point curves, maximum test concentration 100 μM
measured.endpoint: IC50

1. CC1=CCCC2(C)OC2C2OC(=O)C(CN3CCCC3)C2CC1 (centres unmarked) ... > 100 µM

Here's the next entry for you.
**Query** Entry under review: C/C1=C\CC[C@@]2(C)O[C@@H]2[C@H]2OC(=O)[C@@H](CN(C)C)[C@@H]2CC1 [DMAPT, dimethyl amino-PTL, reference compound] . Reported IC50?
**Result** > 100 µM

====

assay: Stability in aqueous solution, pH 7.4; assay type: physicochemical; conditions: pH 7.4, read-out: Stability pH 7.4 T1/2
measured.endpoint: half-life

Example compounds with recorded half-life:
1. COc1ccc(CN(C)C[C@@H]2C(=O)O[C@H]3[C@H]2CC/C(C)=C/CC[C@@]2(C)O[C@H]32)cc1OC ... 1.78 h
2. C/C1=C\CC[C@@]2(C)O[C@@H]2[C@H]2OC(=O)[C@@H](CN3CCC(c4cc(O)nc(C)n4)CC3)[C@@H]2CC1 ... > 2 h
3. C/C1=C\CC[C@@]2(C)O[C@@H]2[C@H]2OC(=O)[C@@H](CN3CCC(O)(c4ccccc4)CC3)[C@@H]2CC1 ... > 2 h
4. C/C1=C\CC[C@@]2(C)O[C@@H]2[C@H]2OC(=O)[C@@H](CN3CCC(Oc4cccnc4)CC3)[C@@H]2CC1 ... > 2 h
5. C/C1=C\CC[C@@]2(C)O[C@@H]2[C@H]2OC(=O)[C@@H](CN3CCC(OCc4cccnc4)CC3)[C@@H]2CC1 ... > 2 h
6. C/C1=C\CC[C@@]2(C)O[C@@H]2[C@H]2OC(=O)[C@@H](CN(C)CCc3ccccc3)[C@@H]2CC1 ... 1.27 h
7. CCn1cc(CN(C[C@@H]2C(=O)O[C@H]3[C@H]2CC/C(C)=C/CC[C@@]2(C)O[C@H]32)C(C)C)cn1 ... > 2 h
8. CCN(CCO)C[C@@H]1C(=O)O[C@H]2[C@H]1CC/C(C)=C/CC[C@@]1(C)O[C@H]21 ... 0.217 h

**Query** Would you kindly share the measured half-life for "C/C1=C\CC[C@@]2(C)O[C@@H]2[C@H]2OC(=O)[C@@H](CN[C@@H](Cc3ccccc3)C(=O)O)[C@@H]2CC1" ?
**Result** > 2 h

**Query** What does the record list as half-life for "C/C1=C\CC[C@@]2(C)O[C@@H]2[C@H]2OC(=O)[C@@H](CN3CCCC3)[C@@H]2CC1" ?
**Result** > 2 h

====

test: Murine intravenous PK study; assay type: in vivo; conditions: blood; mouse, IV 1 mg kg^–1; read-out: Mouse PK (IV) T1/2 (converted)
Listing of entries alongside the reported half-life.
Output spec: scalar in min, unitless text.

Known half-life results, listed for orientation:
1. CC1=CCCC2(C)OC2C2OC(=O)C(CN3CCCC3)C2CC1 (stereo not drawn) ... 39.6
2. C/C1=C\CC[C@@]2(C)O[C@@H]2[C@H]2OC(=O)[C@@H](CN3CCC(c4cc(O)nc(C)n4)CC3)[C@@H]2CC1 ... 68.4

# next compound below
**Query** Request the reported half-life associated with "C/C1=C\CC[C@@]2(C)O[C@@H]2[C@H]2OC(=O)[C@@H](CN3CCCC3)[C@@H]2CC1"
**Result** 39.6

====

test: Microsomal stability assay (mouse); conditions: mouse microsomes; second of two columns headed A to B
Catalogue of Mouse microsomal stability values
Number only, no unit.

Some solved cases for reference:
1. C/C1=C\CC[C@@]2(C)O[C@@H]2[C@H]2OC(=O)[C@@H](CN3CCC(Oc4cccnc4)CC3)[C@@H]2CC1 ... 6
2. C/C1=C\CC[C@@]2(C)O[C@@H]2[C@H]2OC(=O)[C@@H](CN3CCC(c4cc(O)nc(C)n4)CC3)[C@@H]2CC1 ... 77
3. C/C1=C\CC[C@@]2(C)O[C@@H]2[C@H]2OC(=O)[C@@H](CN[C@@H](Cc3ccccc3)C(=O)O)[C@@H]2CC1 ... 160
4. C/C1=C\CC[C@@]2(C)O[C@@H]2[C@H]2OC(=O)[C@@H](CN3CCCC3)[C@@H]2CC1 ... 75
5. C/C1=C\CC[C@@]2(C)O[C@@H]2[C@H]2OC(=O)[C@@H](CN3CCC(OCc4cccnc4)CC3)[C@@H]2CC1 ... 11

API: the following record is the query input.
**Query** Need Mouse microsomal stability, item "CCn1cc(CN(C[C@@H]2C(=O)O[C@H]3[C@H]2CC/C(C)=C/CC[C@@]2(C)O[C@H]32)C(C)C)cn1"
**Result** 2

====

Measured half-life values are reported for all entries that follow.
assay: Murine oral (PO) PK study; assay type: in vivo; details: in vivo; mouse, PO 10 mg kg^–1, as worded in text
The answer is to be given in min; state only the numeric part.

1) C/C1=C\CC[C@@]2(C)O[C@@H]2[C@H]2OC(=O)[C@@H](CN3CCC(c4cc(O)nc(C)n4)CC3)[C@@H]2CC1 [Compound 5f] ... 60

Then this compound:
**Query** Find the recorded half-life belonging to CC1=CCCC2(C)OC2C2OC(=O)C(CN3CCCC3)C2CC1 (centres unmarked) [Compound 5a] and report it.
**Result** 30
